Listing of recorded Mean fluorescence intensity by entry.
Target: T1, human TIM-3, full length, on cells (human, UniProt Q8TDQ0 22-301)
T1 construct: Also used here for native TIM-3 on PBMC in the functional rows; also called CHOK1-hTIM-3; HEK293-h TIM-3
T1 sequence: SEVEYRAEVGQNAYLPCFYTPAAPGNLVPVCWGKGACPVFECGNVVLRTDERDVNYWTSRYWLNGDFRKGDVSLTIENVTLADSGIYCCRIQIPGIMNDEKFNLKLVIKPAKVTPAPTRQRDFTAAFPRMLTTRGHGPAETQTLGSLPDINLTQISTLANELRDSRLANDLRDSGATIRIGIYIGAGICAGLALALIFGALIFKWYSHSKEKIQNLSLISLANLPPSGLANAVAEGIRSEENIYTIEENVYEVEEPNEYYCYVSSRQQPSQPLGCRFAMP
Assay: FACS, CHOK1-hTIM-3 cells; antibody 1.6 nM
assay.metric: Mean fluorescence intensity

[
  {
    "binder": "134H3G6 (TIM-3 antibody purified from hybridoma, chimeric antibody of Example 2) (antibody, V domains shown, From hybridoma of Harbour H2L2 transgenic mice: human variable regions, rat constant regions) VH: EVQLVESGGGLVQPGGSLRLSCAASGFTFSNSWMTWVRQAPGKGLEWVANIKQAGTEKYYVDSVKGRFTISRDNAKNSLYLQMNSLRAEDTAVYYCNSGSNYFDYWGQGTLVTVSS VL: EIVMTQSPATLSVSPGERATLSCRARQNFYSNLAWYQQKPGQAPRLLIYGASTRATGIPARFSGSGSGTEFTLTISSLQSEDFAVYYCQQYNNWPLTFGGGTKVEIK",
    "observed.value": 50
  },
  {
    "binder": "57F4E5 (TIM-3 antibody purified from hybridoma, chimeric antibody of Example 2) (antibody, V domains shown, From hybridoma of Harbour H2L2 transgenic mice: human variable regions, rat constant regions) VH: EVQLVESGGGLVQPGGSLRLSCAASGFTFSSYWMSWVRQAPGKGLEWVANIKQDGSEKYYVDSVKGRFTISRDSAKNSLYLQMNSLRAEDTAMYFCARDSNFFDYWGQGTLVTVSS VL: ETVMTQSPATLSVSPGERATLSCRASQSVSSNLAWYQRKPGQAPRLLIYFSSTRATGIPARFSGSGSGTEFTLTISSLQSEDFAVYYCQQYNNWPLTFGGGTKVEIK",
    "observed.value": 390
  },
  {
    "binder": "18D2H2 (TIM-3 antibody purified from hybridoma, chimeric antibody of Example 2) (antibody, V domains shown, From hybridoma of Harbour H2L2 transgenic mice: human variable regions, rat constant regions) VH: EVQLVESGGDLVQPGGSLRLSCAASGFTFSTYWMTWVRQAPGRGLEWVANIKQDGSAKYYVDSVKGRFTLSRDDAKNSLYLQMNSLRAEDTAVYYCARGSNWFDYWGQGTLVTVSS VL: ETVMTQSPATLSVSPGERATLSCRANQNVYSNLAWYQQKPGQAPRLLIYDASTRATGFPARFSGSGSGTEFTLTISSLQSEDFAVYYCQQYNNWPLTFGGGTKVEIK",
    "observed.value": 40.2
  },
  {
    "binder": "7A4F10 (TIM-3 antibody purified from hybridoma, chimeric antibody of Example 2) (antibody, V domains shown, From hybridoma of Harbour H2L2 transgenic mice: human variable regions, rat constant regions) VH: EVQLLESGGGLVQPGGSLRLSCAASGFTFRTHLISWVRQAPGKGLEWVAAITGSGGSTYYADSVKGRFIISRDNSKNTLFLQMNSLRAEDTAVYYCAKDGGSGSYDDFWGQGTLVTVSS VL: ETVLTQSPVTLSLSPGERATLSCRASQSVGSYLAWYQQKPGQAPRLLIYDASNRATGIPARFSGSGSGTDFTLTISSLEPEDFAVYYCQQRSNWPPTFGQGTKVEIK",
    "observed.value": 15.4
  }
]
